system under test: D3 receptor (Homo sapiens, UniProt P35462)
Sequence (P35462 whole entry): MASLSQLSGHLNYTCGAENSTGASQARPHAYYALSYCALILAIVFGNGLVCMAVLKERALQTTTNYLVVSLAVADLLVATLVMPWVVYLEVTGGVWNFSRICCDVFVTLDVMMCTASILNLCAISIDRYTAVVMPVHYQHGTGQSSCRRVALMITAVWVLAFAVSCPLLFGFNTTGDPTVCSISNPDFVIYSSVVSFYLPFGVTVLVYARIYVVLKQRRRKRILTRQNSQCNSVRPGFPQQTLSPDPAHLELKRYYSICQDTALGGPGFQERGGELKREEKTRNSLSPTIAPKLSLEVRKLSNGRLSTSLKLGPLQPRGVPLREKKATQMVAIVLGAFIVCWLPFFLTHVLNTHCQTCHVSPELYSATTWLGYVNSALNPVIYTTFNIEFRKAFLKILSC
measured property: Ki (µM)
Write it as a number; the unit µM goes unstated.

Param readout = Ki; param system = D3 receptor (Homo sapiens, UniProt P35462); param query = Clc1ccc(N2C3CCC2CN(Cc2c[nH]c4ncccc24)CC3)cc1 (stereo not shown) [Compound 9] ; response: value
0.335
